The values you see were collected from PubChem BioAssay AID248.

List of T/C values.
- Tested on: L1210 leukemia ip in BDF1 mice, survival T/C
- assayMethodText: NCI In Vivo Anticancer Drug Screen. Data for tumor model L1210 Leukemia (intraperitoneal) in B6D2F1 (BDF1) mice
- testConditions: endpoint: mean survival time; dose: 400.0 mg/kg/injection; schedule: Q01DX009 (ip); vehicle: saline with Tween-80; higher = longer survival
Inconclusive results and toxic doses are left out.

molecule	measurement
O=C(Nc1cccc(O)c1)Nc1cccc(Cl)c1Cl	94 % of control
c1ccc2c(-c3nc4ccccc4[nH]3)cccc2c1	93 % of control
O=C1N=C(C(F)(F)F)N=C1c1[nH]c(C(F)(F)F)nc1O	102 % of control
CN(Cc1ccc(Cl)cc1)C(=O)Nc1ccccc1C(F)(F)F	103 % of control
CC1(C)SC(C(NC(=O)Cc2ccccc2)C(=O)O)NC1C(=O)O (configuration not stated)	97 % of control
COc1ccc(OCC(C)=O)cc1	100 % of control
CC(C)=NNC(=O)c1ccc(Cl)cc1	116 % of control
CC1(C)C(=O)C2(C(=O)O)CCC1C2 (configuration not stated)	96 % of control

# T/C (molecule: S=c1oc2cccc3c2n1CCC3 ) is 98 % of control

Looking up CSc1ccc(NC(=O)NCCc2ccccc2)cc1 , I found its T/C recorded as 107 % of control

Notebook: O=c1ccnc(/C=C/c2ccc(Cl)cc2)[nH]1 , T/C read as 96 % of control

Recorded T/C (molecule COC(=O)/C=C1\C(C(=O)OC)=Cc2ccccc2N1C ): 94 % of control

# T/C of CC(C)c1cc(C(C)C)nc(NNc2nc(C(C)C)cc(C(C)C)n2)n1 = 98 % of control

Value of measured T/C for the entry OC(c1ccc(Br)cc1)(c1cccs1)C1CC1 (configuration not stated) : 98 % of control

T/C reading for COc1ccc(/C=C/C(=O)c2ccc(OC)c(OC)c2)cc1OC : 102 % of control

====

Reported T/C is given for each of the following compounds.
- Test system: L1210 leukemia ip in BDF1 mice, survival T/C
- assayMethodText: NCI In Vivo Anticancer Drug Screen. Data for tumor model L1210 Leukemia (intraperitoneal) in B6D2F1 (BDF1) mice
- testConditions: endpoint: mean survival time; dose: 5.0 mg/kg/injection; schedule: Q01DX001 (ip); vehicle: saline; higher = longer survival
Toxic doses and inconclusive results are not listed.

CC(=O)Oc1cc(OC(C)=O)c2c(OC(C)=O)c3c(OC(C)=O)cc(C)cc3cc2c1 112 % of control
OB(O)CI 86 % of control
O=[N+]([O-])c1ccccc1CN1CCCCC1 102 % of control
N#CSCC(=O)OC1CCCCC1 98 % of control
COc1cc(C)c(C=O)cc1OC 103 % of control

// sample CC(C)(C)NC/C(=C\c1ccccc1)C(=O)c1ccccc1 , its T/C was 98 % of control

For CNCCCN1c2ccccc2CCc2ccccc21 the compound record lists T/C as 105 % of control

====

T/C: recorded values
- Tested on: L1210 leukemia ip in BDF1 mice, survival T/C
- assayMethodText: NCI In Vivo Anticancer Drug Screen. Data for tumor model L1210 Leukemia (intraperitoneal) in B6D2F1 (BDF1) mice
- testConditions: endpoint: mean survival time; dose: 200.0 mg/kg/injection; schedule: Q01DX009 (ip); vehicle: saline with Tween-80; higher = longer survival
Inconclusive results and toxic doses are left out.

compound	T/C
COC(=O)/C=C1\C(C(=O)OC)=Cc2ccccc2N1C	91 % of control
COC1CC(N=[N+]=[N-])C(OC(=O)c2ccccc2)C(C)O1 (stereo unspecified)	102 % of control
O=C1NC(=O)C(c2ccc(O)cc2)N1 (stereo unspecified)	87 % of control

Simply: CC(C)(C)S(=O)(=O)C(C)(C)C , L1210 leukemia ip in BDF1 mice, survival T/C, T/C = 90 % of control

The measured T/C that CC1=C(C)C(=O)C(CC2=C(C)C(=O)C(C)=C(C)C2=O)=C(C)C1=O showed for L1210 leukemia ip in BDF1 mice, survival T/C is 100 % of control

Tested system L1210 leukemia ip in BDF1 mice, survival T/C; T/C recorded for COc1cc(CCNC(=O)Cc2ccc(OCc3ccccc3)c(OC)c2)ccc1OCc1ccccc1 was 101 % of control
